Target: T1, human PCSK9 (self-cleaved, mature, secreted PCSK9 comprising amino acids 31 to 692 of SEQ ID NO: 2) (human, UniProt Q8NBP7 31-692, biotinylated in the ELISAs)
T1 construct: Limits 31-692 are stated for the immunogen; the assays only say human PCSK9; also called huPCSK9; rhu PCSK9
Assay: SPR pH 5.5
OUTCOME_MEASURE: estimated complex half life pH 5.5 (s)

[[record]]
binder = "SS-15124 (antibody, V domains shown, 31H4 His variant: HC 66(56), 70(60), parental(113H)) VH: EVQLVESGGGLVKPGGSLRLSCAASGFTFSSYSMNWVRQAPGKGLEWVSSISSSSHYISHADSVKGRFTISRDNAKNSLYLQMNSLRAEDTAVYFCARDYDFHSAYYDAFDVWGQGTMVTVSS VL: ESVLTQPPSVSGAPGQRVTISCTGSSSNIGAGYDVHWYQQLPGTAPKLLISGNSNRPSGVPDRFSGSKSGTSASLAITGLQAEDEADYYCQSYDSSLSGSVFGGGTKLTVLG"
outcome_measure = "estimated complex half life pH 5.5"
readout_units = "s"
endpoint_value = 100

[[record]]
binder = "SS-15114 (antibody, V domains shown, 31H4 His variant: HC 39(32), 132(106), parental(113H)) VH: EVQLVESGGGLVKPGGSLRLSCAASGFTFSSHSMNWVRQAPGKGLEWVSSISSSSSYISYADSVKGRFTISRDNAKNSLYLQMNSLRAEDTAVYFCARDYDFHSAHYDAFDVWGQGTMVTVSS VL: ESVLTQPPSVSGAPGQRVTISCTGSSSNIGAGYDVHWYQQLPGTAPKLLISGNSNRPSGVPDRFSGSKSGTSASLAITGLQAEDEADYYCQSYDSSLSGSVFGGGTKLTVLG"
outcome_measure = "estimated complex half life pH 5.5"
readout_units = "s"
endpoint_value = 100

[[record]]
binder = "SS-15136 (antibody, V domains shown, 31H4 His variant: HC 70(60), 132(106), parental(113H)) VH: EVQLVESGGGLVKPGGSLRLSCAASGFTFSSYSMNWVRQAPGKGLEWVSSISSSSSYISHADSVKGRFTISRDNAKNSLYLQMNSLRAEDTAVYFCARDYDFHSAHYDAFDVWGQGTMVTVSS VL: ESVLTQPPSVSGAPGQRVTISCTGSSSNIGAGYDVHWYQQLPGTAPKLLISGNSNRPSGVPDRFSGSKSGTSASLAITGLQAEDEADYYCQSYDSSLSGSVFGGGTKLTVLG"
outcome_measure = "estimated complex half life pH 5.5"
readout_units = "s"
endpoint_value = 100

[[record]]
binder = "SS-15065 (antibody, V domains shown, 31H4 His variant: LC 39(32), HC 132(106), parental(113H)) VH: EVQLVESGGGLVKPGGSLRLSCAASGFTFSSYSMNWVRQAPGKGLEWVSSISSSSSYISYADSVKGRFTISRDNAKNSLYLQMNSLRAEDTAVYFCARDYDFHSAHYDAFDVWGQGTMVTVSS VL: ESVLTQPPSVSGAPGQRVTISCTGSSSNIGAGHDVHWYQQLPGTAPKLLISGNSNRPSGVPDRFSGSKSGTSASLAITGLQAEDEADYYCQSYDSSLSGSVFGGGTKLTVLG"
outcome_measure = "estimated complex half life pH 5.5"
readout_units = "s"
endpoint_value = 100

[[record]]
binder = "SS-15121 (antibody, V domains shown, 31H4 His variant: HC 61(54), 132(106), parental(113H); parental LC) VH: EVQLVESGGGLVKPGGSLRLSCAASGFTFSSYSMNWVRQAPGKGLEWVSSISSHSSYISYADSVKGRFTISRDNAKNSLYLQMNSLRAEDTAVYFCARDYDFHSAHYDAFDVWGQGTMVTVSS VL: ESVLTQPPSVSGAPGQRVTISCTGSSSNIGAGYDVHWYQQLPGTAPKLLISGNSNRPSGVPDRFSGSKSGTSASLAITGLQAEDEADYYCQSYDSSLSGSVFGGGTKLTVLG"
outcome_measure = "estimated complex half life pH 5.5"
readout_units = "s"
endpoint_value = 20

